tested on: T. gondii RH strain (RH-Tub-eYFP) tachyzoites; experiment: microbe, parasite or virus in culture; format: cell-based, Toxoplasma gondii; details: T. gondii, 72 h, 2 μg/mL; mean of both replicates, growth (% of control)
Quick reference: Mean of the listed items.

- molecule: "O=C1NC(c2c[nH]c3ccccc23)=C/C1=C1\\C(=O)Nc2ccccc21"
  observable: "Mean"
  recorded.value: 20.63
- molecule: "CN[C@@H]1C[C@H]2O[C@@](C)([C@@H]1OC)n1c3ccccc3c3c4c(c5c6ccccc6n2c5c31)C(=O)NC4=O"
  observable: "Mean"
  recorded.value: 37.90
- molecule: "CC(C)=CCC[C@H](C)[C@H]1CC[C@]2(C)C[C@H]3[C@H](C(=O)C[C@@]3(C)O)/C(C=O)=C\\C[C@@H]12"
  observable: "Mean"
  recorded.value: 48.72

Here is another molecule to look at.
Record summary for CC[C@H]1CCC[C@H](O)[C@@H](C)C(=O)C2=C[C@@H]3[C@@H](C=C[C@@H]4C[C@@H](O[C@@H]5O[C@@H](C)[C@H](OC)[C@@H](OC)[C@H]5OC)C[C@@H]34)[C@@H]2CC(=O)O1 [Spinosyn A pseudoaglycone] : reported Mean = 30.09

###

The reader will find reported Replicate 1 values listed item by item below.
system: T. gondii RH strain (RH-Tub-eYFP) tachyzoites; test: microbe, parasite or virus in culture; format: cell-based, Toxoplasma gondii; conditions: T. gondii, 72 h, 2 μg/mL; values are growth (% of control)
Counter-ions that a name gives are not always drawn.

Reference set (2 entries):
- molecule: "CN[C@@H]1C[C@H]2O[C@@](C)([C@@H]1OC)n1c3ccccc3c3c4c(c5c6ccccc6n2c5c31)C(=O)NC4=O [Oxostaurosporine, 7-]"
  target: "T. gondii RH strain (RH-Tub-eYFP) tachyzoites"
  Replicate 1: 57.26
- molecule: "CN(C)c1ccc(O)c2c1C[C@H]1C[C@H]3[C@H](N(C)C)C(O)=C(C(N)=O)C(=O)[C@@]3(O)C(O)=C1C2=O [Minocycline HCl, reference compound]"
  target: "T. gondii RH strain (RH-Tub-eYFP) tachyzoites"
  Replicate 1: 5.81

Data point: CC[C@H]1CCC[C@H](O)[C@@H](C)C(=O)C2=C[C@@H]3[C@@H](C=C[C@@H]4C[C@@H](O[C@@H]5O[C@@H](C)[C@H](OC)[C@@H](OC)[C@H]5OC)C[C@@H]34)[C@@H]2CC(=O)O1 [Spinosyn A pseudoaglycone] ; Replicate 1 = 50.49

###

tested on: P. falciparum 3D7 parasites; experiment: P. falciparum growth inhibition assay, 2-cycle (120 h treatment), delayed-death screen and dose-response; assay type: cell-based, Plasmodium falciparum; conditions: library screen at 2 μg/mL, 120 h, % growth, replicate 2
observable: Pf_120h_%Growth_Rep2 (%)
Field format: number, assumed %, no unit text.

- compound: "C=C1C(=O)O[C@H]2C(=O)O[C@H](CCCCCCCC)[C@@H]12 [Avenaciolide]"
  target: "P. falciparum 3D7 parasites"
  scale.unit: "%"
  recorded.value: 80.39
- compound: "CN(C)[C@H]1C(O)=C(C(N)=O)C(=O)[C@@]2(O)C(O)=C3C(=O)c4c(O)ccc(Cl)c4[C@@](C)(O)[C@H]3C[C@@H]12.Cl [Epichlortetracycline hydrochloride]"
  target: "P. falciparum 3D7 parasites"
  scale.unit: "%"
  recorded.value: 79.95

Let me check: CC1=C[C@H]2C(=O)O[C@H]3C[C@@H](C/C=C(/C)[C@@H](O)[C@@H](C)/C=C\C=C4CO[C@H]([C@@H]1O)[C@@]42O)O[C@@]1(C=C[C@H](C)[C@@H](C2CCCCC2)O1)C3 , system P. falciparum 3D7 parasites, measured Pf_120h_%Growth_Rep2 is 81.83

The observed Pf_120h_%Growth_Rep2 for C/C=C/C=C/[C@H]1Cc2cc(O)cc(O)c2O1 when tested with P. falciparum 3D7 parasites stands at 94.19

Considering Cc1c2c(c(O)c3c(O)cccc13)C(=O)[C@]1(O)C(O)=C(C(N)=O)C(=O)[C@H](N(C)C)[C@@H]1C2.Cl [Epianhydrotetracycline hydrochloride] , its Pf_120h_%Growth_Rep2 with P. falciparum 3D7 parasites was recorded as 113.33

The recorded Pf_120h_%Growth_Rep2 with P. falciparum 3D7 parasites for COc1oc([C@H]2C/C(=C/C(C)=C/c3ccc([N+](=O)[O-])cc3)CO2)c(C)c(=O)c1C was 61.20
